- System: SN12C renal
- Measurement notes: NCI-60 one-dose screen, 48 h (100 = growth as untreated, 0 = no growth, -100 = all killed)
- Experimental context: 10 µM unless noted
This is part of a sample that, as a whole, favours compounds with a hit. Of some 83,000 tested, about 20% had one in any assay.
Reported growth by item:
Give just the number in %; leave the unit off.

{"Molecule": "COc1cccc(-c2nc3sccn3c2-c2ccnc(NCCCNS(=O)(=O)c3ccc(Cl)cc3)c2)c1", "Target or test system": "SN12C renal", "Unit spec": "%", "Measured result": 41.1}
{"Molecule": "COc1ccccc1-c1ccc2c(N)c(C(=O)c3ccc4c(c3)OCO4)sc2n1", "Target or test system": "SN12C renal", "Unit spec": "%", "Measured result": 64.2}
{"Molecule": "CCOC(=O)CC(C)=N", "Target or test system": "SN12C renal", "Unit spec": "%", "Measured result": 103}
{"Molecule": "COc1ccc(-c2nn(-c3ccccc3)cc2/C=C2\\SC(=O)NC2=O)cc1", "Target or test system": "SN12C renal", "Unit spec": "%", "Measured result": 90.8}
{"Molecule": "CCOC(=O)C12CCCC1=CC(=O)CC2 (stereo unspecified)", "Target or test system": "SN12C renal", "Unit spec": "%", "Measured result": 110}

From here, focus on the item given below.
Specify measured growth for COc1cc2c(cc1O)CCc1cc(O)cc(OC)c1-2 .
89.4

----------
- System: M14 melanoma
- Measurement notes: NCI-60 one-dose screen, 48 h (100 = growth as untreated, 0 = no growth, -100 = all killed)
- Experimental context: 10 µM unless noted
About 83,000 compounds went through this panel and 20% of them were active in at least one assay; those are over-represented in the sample as a whole.
Labelling: growth reported below 50% becomes T; at or above becomes F.

Please indicate whether the reported growth of CCCCCCCCCC(=O)Oc1ccc(/C(=C(/C)Cc2cccc(OC)c2)c2ccc(OCCN(C)C)cc2)cc1 is strictly below 50%.
F

growth under 50%? Item: COc1cc2cc(COc3nccc(-c4ccc(Cl)cc4)n3)c(=O)[nH]c2cc1OC
T

Bench note: check whether Nc1cc(-c2nc3sccn3c2-c2ccnc(NCCCNS(=O)(=O)c3ccc(F)cc3)n2)ccc1F shows growth below 50%
T

Identify whether the compound O=C1Nc2ccccc2/C1=C/C(=N/c1nnc(-c2ccc(Cl)cc2)s1)c1ccccc1 records growth below 50%.
F

growth strictly < 50% for this compound? O=C(O)c1ccc2c(c1Sc1ccccc1)C(=O)c1ccccc1C2=O
F

----------
- System: HOP-62 NSCLC
- Measurement notes: NCI-60 one-dose screen, 48 h
- Experimental context: 10 µM unless noted
This is part of a sample that, as a whole, favours compounds with a hit. Of some 83,000 tested, about 20% had one in any assay. Active and inactive are the calls of the source. Rule for the calls: active = growth percent below 10; inactive = the rest.
Bench note: report the call from active, inactive

Here are 5 compounds together with their reported answers.
{"Compound": "COc1ccccc1-c1ccc2c(N)c(C(=O)c3ccc4c(c3)OCO4)sc2n1", "Target or test system": "HOP-62 NSCLC", "Label": "inactive"}
{"Compound": "CCOC(=O)C(=Cc1ccccc1F)C(=O)OCC", "Target or test system": "HOP-62 NSCLC", "Label": "inactive"}
{"Compound": "CC1(C)OCC2OC3(C(=O)O)OC(C)(C)OC3C2O1 (stereo not given)", "Target or test system": "HOP-62 NSCLC", "Label": "inactive"}
{"Compound": "COc1ccc(S(=O)(=O)NCCNc2nccc(-c3c(-c4cccc(N)c4)nc4sccn34)n2)cc1", "Target or test system": "HOP-62 NSCLC", "Label": "inactive"}
{"Compound": "O=C(/C=C/c1cc2ccccc2[nH]c1=O)/C=C/c1cc2ccccc2[nH]c1=O", "Target or test system": "HOP-62 NSCLC", "Label": "active"}

Hi, do you know how O=C1C=CC(=O)N1c1ccc(Cc2ccc(N3C(=O)C=CC3=O)cc2)cc1 came out in this test?
inactive

# fetch the recorded call for COc1ccc(-c2c(C)noc2-c2ccc(O)cc2O)cc1 here
inactive

Fill in: this test's call for CCCC(=O)Oc1ccc(/C(=C(/CC)Cc2ccccc2)c2ccc(OCCN3CCCC3)cc2)cc1 is ___
inactive

Please state the recorded outcome for this compound: O=C1Nc2ccccc2/C1=C/C(=N/c1nnc(-c2ccccc2)s1)c1ccccc1
inactive

Could you check what this test reported for COC1C/C(=N\O)C2OC(c3ccccc3)OCC2O1 (stereo not given) ?
inactive

----------
- System: SF-268 CNS
- Measurement notes: NCI-60 one-dose screen, 48 h (100 = growth as untreated, 0 = no growth, -100 = all killed)
- Experimental context: 10 µM unless noted
- Experimental: Cells are grown in 96 well plates and exposed to the test compound for 48 hours. Compounds are tested at a single concentration, which is 10^-5 M for most compounds. The reported endpoint is percent growth (GI% or GIPRCNT), where numbers from 0 - 100% represent growth inhibition, and numbers from -100% - 0 represent cell death. For example, a value of 40 represents 60% growth inhibition. A value of 0 means no net growth occurred over the course of the experiment. […]
About 83,000 compounds went through this panel and 20% of them were active in at least one assay; those are over-represented in the sample as a whole.
Please use yes for growth under 90% and no for everything else, ties included.

Example entries begin here.
{"Record smiles": "O=C(Cc1ccccc1)c1ccc(Cl)cc1", "Label": "no"}
{"Record smiles": "C=C1C(=O)O[C@H]2[C@H]1CC/C(Cn1cc(Cn3ccc4ccccc43)nn1)=C\\CC[C@@]1(C)O[C@@H]21", "Label": "yes"}
{"Record smiles": "CCOC(=O)c1cnc2ccc(OC)cc2c1Nc1cccc(S(=O)(=O)NC)c1", "Label": "yes"}

# strict comparison: is reported growth < 90%? input = CC(=O)Oc1cc2cnc3c4cc(OC(C)=O)c(OC(C)=O)cc4ccc3c2cc1OC(C)=O
yes

I'd appreciate it if you could check whether Cc1cc(N/N=C/c2nc(-c3ccc(Cl)cc3)oc2C)c2cc(Br)ccc2n1 has growth smaller than 90%.
yes

----------
- System: KM12 colon
- Measurement notes: NCI-60 one-dose screen, 48 h
- Experimental context: 10 µM unless noted
About 83,000 compounds went through this panel and 20% of them were active in at least one assay; those are over-represented in the sample as a whole. Activity calls are given as the source filed them. Rule for the calls: active = growth percent below 10; inactive = the rest.
The reply should be one of these categories: active, inactive

These recorded examples may help you get a feel for the data.
{"Compound": "CCCCN(CCCC)Cc1c(C)[nH]c2cc(OC)ccc2c1=O", "Label": "inactive"}
{"Compound": "O=C(CCCN1CCOCC1)Nc1ccc(Cn2nnc3c2C(=O)c2nnn(Cc4ccc(NC(=O)CCCN5CCOCC5)cc4)c2C3=O)cc1", "Label": "inactive"}
{"Compound": "COc1ccc(S(=O)(=O)NCCNc2nccc(-c3c(-c4cccc([N+](=O)[O-])c4)nc4sccn34)n2)cc1", "Label": "inactive"}

Test call for this compound, please: CC1=C(NCCN2CCCC2)C(=O)c2c(OCc3ccc(F)c(Cl)c3)cccc2C1=O
inactive

Which outcome did this test record for the compound Cn1c(=O)c2[nH]c(C(O)C(O)C(O)C(O)CO)nc2n(C)c1=O (stereo not drawn) ?
inactive

For Cc1nn(-c2nc3ccccc3[nH]2)c2c1C(c1ccc3c(c1)OCO3)CC(=O)N2 (stereo not drawn) , what call appears in the results of this test?
active

// param item: CN1CCN(Cc2ccc(NC(=O)c3[nH]ncc3Nc3ncnc4sccc34)cc2)CC1 ; yields the recorded call
active

How was COc1ccc2c(c1)C(=O)/C(=C/c1cccc(OCC(=O)Nc3nc4c(s3)CCCC4)c1)O2 classified in this test?
active

Just curious, what result did CC[C@H](Nc1nc(N)nc(C)c1C#N)c1nc2cccc(NCc3ccc(C(=O)NO)cc3)c2c(=O)n1-c1ccccc1 get here?
active

For COC1/C=C\OC2(C)Oc3c(C)c(O)c4c(O)c(c(CN(C)CCO)c(O)c4c3C2=O)NC(=O)/C(C)=C\C=C/C(C)C(O)C(C)C(O)C(C)C(OC(C)=O)C1C (stereo not drawn) , which call appears in the assay record?
inactive

Record request — test call for CCN(CC)CC(C)(C)C(=O)/C=C/c1ccccc1
inactive

I would be grateful if you could indicate the recorded call for CSc1nc2sc3c(c2c(=O)n1-c1ccc(C(C)C)cc1)CCC(=O)C3 .
active

Just curious, what result did CCCCCCCCCC(=O)Oc1ccc(/C(=C(/C)c2ccccc2)c2ccc(OCCN3CCCC3)cc2)cc1 get here?
inactive

// param item: Cc1ccc2c(c1)n([O-])c1cc(Cl)ccc1[n+]2=O ; yields the recorded call
inactive

// outcome(item) with item = C[C@@H]1CC[C@@H]2[C@@H]1[C@H](OC(=O)/C=C/c1ccccc1)[C@]1(c3ccccc3)C[C@@H](OC(=O)CO)[C@@]2(C)O1
inactive

Hi, do you know how CN(C)c1ccc(/C=C\C2=[N+](C)c3ccccc3C2(C)C)cc1 came out in this test?
active

Dear colleague, could you share the recorded outcome for CC[C@H](CO)Nc1nc(NCc2ccccc2)n2ncc(C(C)C)c2n1 when you have a moment?
active

State the result this test recorded for O=c1c2cccc3c(NC4CCCCC4)ccc(c32)c2nc3ccccc3n12 .
inactive

# outcome recorded in this test, key = COc1ccc(/C=C/C(=O)c2ccc(NC(=O)c3cc4cc5ccccc5nc4s3)cc2)cc1OC
inactive

Call for entry COc1ccc(-c2cc(NC(=O)Nc3ccc(O)cc3)no2)cc1 :
inactive
